Values compiled from ChEMBL document CHEMBL3988442.

tested-target: Chromo domain-containing protein 1 (Saccharomyces cerevisiae (strain ATCC 204508 / S288c) (Baker's yeast))
assay-info: ScCHD-1 Enzyme Inhibition Assay; also: in the data most compounds retested in dose-response had high values
Format: functional
Set-up: scale not given: direction of the effect not stated beside the values
condition-info: 30 µM
Could you please report measured Percent Effect for the items listed next?
Answers are plain numbers, in %.

For orientation, consider the following solved cases.
molecule: O=C(COc1cccc2c1CCC2=O)NCCSc1ccccc1
endpoint-value: -5.02
--
molecule: COCCNS(=O)(=O)c1cccc2c1CN(C(=O)c1ccccc1)CC2
endpoint-value: 4.48
--
molecule: Cc1ccccc1C1CCCN1C(=O)CN1CC2(CCNCC2)OC1=O (stereo not drawn)
endpoint-value: 87.8
--
molecule: Cn1nc(C2CCN(C(=O)Cc3cccc(F)c3)CC2)c2cccnc21
endpoint-value: -3.75
--
molecule: Cc1noc2ncc(C(=O)N3CCCC3c3cnn(C)c3)cc12 (stereo not drawn)
endpoint-value: -2.49
--
molecule: Cc1nn(C)c(C)c1NC(=O)CN1CCCC1c1noc(C2CC2)n1 (stereo not drawn)
endpoint-value: -7.02

Batch request: Percent Effect for each of the following molecules.
1. Cc1nn(C)cc1C(=O)Nc1cccc(CN2CCC(CO)CC2)c1
2. CNC(=O)[C@H]1C[C@H]2OCC[C@H]2N(Cc2ccc(C)o2)C1

-7.09
-6.31

====

Species: Homo sapiens
assay-info: To identify inhibition of the IFN signalling (Jak-Stat) pathway via expression of an eGFP reporter gene under the control of an IFN-stimulated response element (ISRE) containing MxA promoter.
Format: functional
Design: scale not given: direction of the effect not stated beside the values
condition-info: 30 µM
For each entry below, report its Percent Effect value.
One number for each entry, in %.

molecule: CCc1nc(CN2CCCC(NCc3nnc(C4CC4)o3)C2)no1 (stereo unspecified)
Percent Effect / %: -0.806

molecule: COC(=O)Cn1cccc(S(=O)(=O)N2CCC(C)CC2)c1=O
Percent Effect / %: 15.8

molecule: CNC(=O)NC(=O)CN1CCC(c2cccc(F)c2)C1 (stereo unspecified)
Percent Effect / %: 11.3

molecule: Cn1nccc1-c1ccc2nc(C3CCN(CCO)CC3)nn2c1
Percent Effect / %: 3.01

molecule: O=C(c1cccc(Cn2ccnc2)c1)N1CCCC(n2ccnc2)C1 (stereo unspecified)
Percent Effect / %: 29

molecule: CCCc1nc(CN2CCN(CC(O)c3ccccc3)CC2)no1 (stereo unspecified)
Percent Effect / %: 7.59

List the reported Percent Effect of each molecule below.
1. COc1cc(CCC(=O)NC2CC2)ccc1OCC(F)(F)F
2. CC(=O)N(C)c1nc(CN2CCOC(Cn3cccn3)C2)cs1 (stereo unspecified)

[3.66, 10.3]

List reported Percent Effect for each of these molecules:
1. CC(NC(=O)NCCOc1ccc(F)c(F)c1)c1nncn1C (stereo unspecified)
2. Cc1ccc(C(NC(=O)CC2CCN(C(C)C)CC2)C(=O)O)cc1 (stereo unspecified)
3. CC(C)c1nn(CC(=O)N2CCCCC2)c(=O)c2c1cnn2C(C)(C)C

16.9
0.454
17.3

====

tested-target: Ubiquitin-activating enzyme e1, putative (Leishmania donovani (strain BPK282A1))
Sequence (whole entry): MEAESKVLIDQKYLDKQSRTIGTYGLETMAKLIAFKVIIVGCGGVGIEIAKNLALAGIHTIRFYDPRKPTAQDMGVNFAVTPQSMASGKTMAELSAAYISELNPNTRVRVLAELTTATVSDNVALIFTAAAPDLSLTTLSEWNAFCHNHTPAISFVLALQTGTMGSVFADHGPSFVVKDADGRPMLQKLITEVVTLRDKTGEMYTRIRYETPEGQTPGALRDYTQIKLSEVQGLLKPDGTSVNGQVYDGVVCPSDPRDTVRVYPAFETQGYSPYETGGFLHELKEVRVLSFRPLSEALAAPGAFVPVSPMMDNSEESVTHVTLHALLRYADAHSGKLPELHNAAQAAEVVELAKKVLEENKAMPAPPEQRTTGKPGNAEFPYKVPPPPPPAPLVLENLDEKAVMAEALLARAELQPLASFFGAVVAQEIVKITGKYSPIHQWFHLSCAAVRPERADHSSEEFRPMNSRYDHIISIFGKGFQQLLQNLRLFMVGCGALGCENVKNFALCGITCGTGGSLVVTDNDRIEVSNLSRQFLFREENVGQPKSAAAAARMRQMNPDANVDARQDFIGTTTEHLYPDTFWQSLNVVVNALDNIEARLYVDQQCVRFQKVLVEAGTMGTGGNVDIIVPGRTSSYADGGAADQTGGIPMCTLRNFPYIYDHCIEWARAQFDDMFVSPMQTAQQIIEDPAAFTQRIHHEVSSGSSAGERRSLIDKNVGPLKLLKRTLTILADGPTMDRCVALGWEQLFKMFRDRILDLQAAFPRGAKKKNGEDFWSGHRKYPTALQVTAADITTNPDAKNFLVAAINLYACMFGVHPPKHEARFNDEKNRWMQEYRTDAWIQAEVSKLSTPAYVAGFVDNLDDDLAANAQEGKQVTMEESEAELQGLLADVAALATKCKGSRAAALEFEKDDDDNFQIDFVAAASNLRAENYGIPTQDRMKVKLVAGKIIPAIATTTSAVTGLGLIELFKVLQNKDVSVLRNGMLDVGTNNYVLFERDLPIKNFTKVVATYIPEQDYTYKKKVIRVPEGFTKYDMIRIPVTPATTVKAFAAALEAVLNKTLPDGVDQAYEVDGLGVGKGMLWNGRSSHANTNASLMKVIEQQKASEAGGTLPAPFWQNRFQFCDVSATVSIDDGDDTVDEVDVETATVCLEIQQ
assay-info: Leishmania donovani Ubiquitin Activating Enzyme (LdE1)
Type: functional
Parameters: scale not given: direction of the effect not stated beside the values
condition-info: 30 µM
Results with a measured potency or affinity are listed apart.
measurement-label: Percent Effect (%)
One number for each entry, in %.

See these solved cases before continuing.
compound: CN(C)[C@@H]1CCN(c2ncccn2)[C@H]1Cc1ccccc1
tested-target: Ubiquitin-activating enzyme e1, putative (Leishmania donovani (strain BPK282A1))
Percent Effect / %: 5.2

compound: CC(=O)N(Cc1noc(C2CC2)n1)C1CCN(Cc2cccnc2)C1 (stereo unspecified)
tested-target: Ubiquitin-activating enzyme e1, putative (Leishmania donovani (strain BPK282A1))
Percent Effect / %: 13.5

compound: COCC1Cn2nnc(-c3cnn(C)c3)c2CN1Cc1ccc(C)s1 (stereo unspecified)
tested-target: Ubiquitin-activating enzyme e1, putative (Leishmania donovani (strain BPK282A1))
Percent Effect / %: 10.8

compound: COc1ccc(CN2CCOC3(CCCN(c4nnc(C)o4)C3)C2)cc1 (stereo unspecified)
tested-target: Ubiquitin-activating enzyme e1, putative (Leishmania donovani (strain BPK282A1))
Percent Effect / %: -2.74

Parameter requested: Percent Effect. Apply to each item below.
1. O=S1(=O)C[C@@H]2[C@H](C1)N(Cc1ncc[nH]1)CCN2CC1CC1
2. Cc1nn(C)c(N(C)C)c1CNCC(O)c1ccccc1 (stereo unspecified)

[0, 2.74]

====

Answer each item with its documented Percent Effect.
tested-target: Protein translocase subunit SecA (Escherichia coli (strain K12)) (UniProt P10408)
Sequence (P10408 whole entry): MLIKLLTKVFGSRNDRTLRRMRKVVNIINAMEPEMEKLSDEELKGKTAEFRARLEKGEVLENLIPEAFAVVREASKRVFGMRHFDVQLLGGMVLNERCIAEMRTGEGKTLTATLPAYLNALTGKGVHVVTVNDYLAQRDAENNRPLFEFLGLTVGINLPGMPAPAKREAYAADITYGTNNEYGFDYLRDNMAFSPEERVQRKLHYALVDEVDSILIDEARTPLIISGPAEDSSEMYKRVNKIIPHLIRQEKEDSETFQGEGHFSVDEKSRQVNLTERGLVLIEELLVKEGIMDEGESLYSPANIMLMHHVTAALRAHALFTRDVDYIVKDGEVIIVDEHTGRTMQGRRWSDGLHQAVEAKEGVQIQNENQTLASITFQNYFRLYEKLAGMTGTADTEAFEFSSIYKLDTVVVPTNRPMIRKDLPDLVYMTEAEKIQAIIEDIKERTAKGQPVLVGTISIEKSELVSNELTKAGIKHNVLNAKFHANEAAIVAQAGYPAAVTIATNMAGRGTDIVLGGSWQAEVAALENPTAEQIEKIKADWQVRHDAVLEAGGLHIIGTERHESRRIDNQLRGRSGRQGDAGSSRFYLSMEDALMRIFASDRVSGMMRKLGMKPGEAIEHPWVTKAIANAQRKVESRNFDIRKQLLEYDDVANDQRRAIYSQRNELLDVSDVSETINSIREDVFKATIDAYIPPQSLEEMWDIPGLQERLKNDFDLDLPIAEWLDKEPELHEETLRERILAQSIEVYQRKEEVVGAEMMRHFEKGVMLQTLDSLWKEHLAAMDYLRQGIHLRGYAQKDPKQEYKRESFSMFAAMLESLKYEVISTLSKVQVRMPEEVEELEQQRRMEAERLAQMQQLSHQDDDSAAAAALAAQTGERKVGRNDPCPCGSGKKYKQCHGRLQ
assay-info: Assay to Identify E. coli SecA ATPase Inhibitors
Type: functional
Set-up: scale not given: direction of the effect not stated beside the values
condition-info: 30 µM
Potency and affinity values are given separately.
Give bare numbers, in %.

Worked cases, Percent Effect given:
compound: Cc1cccc(N2CCN(CCNC(=O)c3ccnn3C)CC2)c1
measurement-label: Percent Effect
units-text: %
endpoint-value: 0.195
//
compound: Cc1cc(C)n(CC2CCCN2C(=O)Cc2c(C)noc2C)n1 (centres undefined)
measurement-label: Percent Effect
units-text: %
endpoint-value: -7.56
//
compound: O=C(Cc1ccccc1F)N1CCN(C(=O)c2ccoc2)CC1
measurement-label: Percent Effect
units-text: %
endpoint-value: -1.97
//
compound: COCCN1CC[C@@H](O)[C@@H]1Cc1ccccc1
measurement-label: Percent Effect
units-text: %
endpoint-value: 1.28
//
compound: COc1ccccc1CC(=O)NS(C)(=O)=O
measurement-label: Percent Effect
units-text: %
endpoint-value: -4.83
//
compound: O=C(c1cccc(CN2CCCC2)c1)N1CCCC(n2cncn2)C1 (centres undefined)
measurement-label: Percent Effect
units-text: %
endpoint-value: -4.8
//
compound: CCCS(=O)(=O)c1ncc(CN2CCC(CO)CC2)n1CC1CCCO1 (centres undefined)
measurement-label: Percent Effect
units-text: %
endpoint-value: 0.687
//
compound: Cc1cccc(-c2nc(C)nn2CC(=O)N(C)C2CC2)c1
measurement-label: Percent Effect
units-text: %
endpoint-value: -4.92

# lookup: Percent Effect of N#Cc1cccc(CS(=O)(=O)NCCC(O)c2ccccc2)c1 (centres undefined) 13

====

tested-target: Protein translocase subunit SecA (Escherichia coli (strain K12))
assay-info: Assay to Identify E. coli SecA ATPase Inhibitors
Format: functional
Set-up: scale not given: direction of the effect not stated beside the values
condition-info: 30 µM
Entries with a potency or affinity are not part of this list.
measurement-label: Percent Effect
Quick note: unit goes after the number.

Please supply Percent Effect for each of the following items, keeping them in order.
1. Clc1ccc2oc(C3CCN(Cc4cccnc4)CC3)nc2c1
2. CS(=O)(=O)N1CCCN(C(=O)c2ccc(Cn3ccccc3=O)o2)CC1
3. CC(O)CN1CCC(CNCc2cccc(Br)c2)CC1 (stereo not given)
4. Cc1nc(C)n(CC2CCCN(CCc3ccccn3)C2)n1 (stereo not given)
5. Cc1nc(Nc2nnc(C)s2)cc(C2CCCN2C)n1 (stereo not given)

0.753%
0.345%
-6.33%
-8.02%
-1.27%

Please give Percent Effect for each item listed below.
1. O=C(CCN1CCC(C(=O)c2cc(F)ccc2F)CC1)NC1CC1
2. COC(C(=O)N1CCCN(Cc2cscn2)CC1)c1ccccc1 (stereo not given)
3. NC(=O)NCCC(=O)NCc1cccnc1N1CCc2ccccc2C1

-5.55%
-0.131%
-1.28%

Count: 4. Required value per item: Percent Effect.
1. CN(CC(=O)N1CCN(c2ncccn2)CC1)c1ccc(Cl)cn1
2. Cc1nnc2n1CCN(CCC(=O)Nc1sccc1C#N)C2
3. Cc1cc(CN2CCN(C(=O)NC(C)Cn3ccnc3)CC2)no1 (stereo not given)
4. N#CCCN(C(=O)CN1CCCC1Cc1ccccc1)c1ccccc1 (stereo not given)

0.47%
-2.38%
-1.68%
-5.2%

Please give Percent Effect for each item listed below.
1. CC(C)NC(=O)CS(=O)(=O)Cc1cc(Cl)c2c(c1)OCCO2
2. O=C(Cn1cnc(NC(=O)CC2CCCC2)n1)NCc1ccccc1
3. CCOc1ccc(C(=O)NS(=O)(=O)c2cncc(Br)c2)cc1OC
4. Cc1cnn(CCNCc2ccc(OCC(N)=O)cc2)c1

["-2.36%", "-6.6%", "-4.35%", "-7.27%"]

For every item below, please supply its Percent Effect.
1. Cc1nc(C2CCCN2CC(=O)NCCOc2ccccc2)no1 (stereo not given)
2. CC(C)c1ccc(OCn2ccc(C(=O)N3CCCC3)n2)cc1
3. CC(=O)c1c(F)cccc1N1CCC(CS(N)(=O)=O)CC1
4. Cc1nccc(C(=O)N2CCCN(Cc3cnn(C(C)C)c3)CC2)n1
5. Cc1c(I)cccc1C(=O)NCC1(CO)CC1
6. CCc1nnc2n1CCN(C(=O)Cc1csc(-c3ccco3)n1)C2
7. CCOc1cc(C)ccc1NC(=O)N(C)Cc1cnn(C)c1
8. Cc1ccc(C(=O)NS(=O)(=O)c2cc(Cl)ccc2Cl)c(=O)[nH]1

["-3.91%", "-3.25%", "-2%", "-7.35%", "-4.35%", "-4.35%", "-3.73%", "-2.59%"]

Items follow; give Percent Effect for each.
1. COCCc1noc(CN(C)C2CCCN(c3ccc(C)nn3)C2)n1 (stereo not given)
2. COCCCN1CCc2cncnc2C1
3. O=C(CCCOc1ccc(F)cc1)N1CCCC(n2cccn2)C1 (stereo not given)
4. CCN(CC)CC(=O)NCCc1csc(N2CCCC2)n1
5. Cc1ccc(C(=O)N(C)Cc2cscn2)c(=O)[nH]1
6. COCCN1CC[C@@H]2OC[C@H](C(=O)NCc3cccs3)C[C@@H]2C1
7. CNS(=O)(=O)Cc1ccc(CNC(=O)c2cccc(C)n2)cc1
8. Fc1ccc(CN2CCO[C@H]3[C@H](OCC4CC4)CC[C@@H]32)cc1

-2.39%
-2.65%
-2.63%
-3.47%
-6.94%
0.484%
-2.39%
-2.57%

// for each compound in input: emit Percent Effect
1. CCc1c(C(=O)N2CCN(c3ncccn3)CC2)cnn1C(C)(C)C
2. CN1CC(=O)N(c2ccccc2)CC12CCN(Cc1nccs1)C2 (stereo not given)
3. Cn1cc(C(=O)NCc2cn3c(n2)CN(CC2CCOCC2)CC3)cn1

1. -1.49%
2. 3.96%
3. -2.09%

Below are some compounds; for each one, tell me its Percent Effect.
1. CCOc1ccc(N2CCCN=C2NC(=O)c2cccc(Cl)c2)cc1
2. COC(=O)c1sccc1S(=O)(=O)N1CCC(Oc2ncccc2Cl)CC1
3. CCc1noc(C)c1C(=O)N1CCCC1c1c(C)nn(C)c1OC (stereo not given)
4. Brc1cc2c(cc1CN1CCC(N3CCCCC3)CC1)OCCO2

1: -0.891%; 2: -6.92%; 3: -2.91%; 4: -3.24%

What value of Percent Effect has been recorded for this entry: CCOCCCn1c(NC(=O)c2cnn(C)c2)nc2ccccc21 -5.81%
